Test system: HFF
ASSAY: Cytotoxicity against human HFF cells
Type: cell-based
CONDITIONS: hff
PROPERTY_NAME: CC50 (µM)

INPUT_SMILES: C[C@H](N[C@H]1CCCc2c1[nH]c1ccc(Br)cc21)c1ccccc1
PROPERTY_NAME: CC50
UNITS_LABEL: µM
VALUE_OBSERVED: 28.5

###

ASSAY: Bioavailability in rat at 10 mg/kg administered as suspension
Format: ADME, organism-based
CONDITIONS: in vivo

INPUT_SMILES: C[C@@H](N[C@@H]1CCCc2c1[nH]c1ccc(Br)cc21)c1ccccc1
bioavailability / %: 47

###

ASSAY: Selectivity index, ratio of cytotoxicity against african green monkey Vero cells to antiviral activity against HPV-16
Assay type: toxicity, cell-based
CONDITIONS: read-out: Selectivity Index

INPUT_SMILES: C[C@@H](N[C@@H]1CCCc2c1[nH]c1ccc(Br)cc21)c1ccccc1
selectivity ratio: > 500

###

Catalogue of CC50 values
ASSAY: Cytotoxicity against human HFF cells
Format: cell-based
CONDITIONS: HFF cells

MOLECULE: Cc1ccc2[nH]c3c(c2c1)CCCC3NC(C)c1ccccc1 (racemic)
QUALIFIER_SIGN: =
CC50, µM: 40

MOLECULE: c1ccc(CNC2CCCc3c2[nH]c2ccccc32)cc1 (racemic)
QUALIFIER_SIGN: =
CC50, µM: 40.4

MOLECULE: CCN(CC)CCNC1CCCc2c1[nH]c1ccc(C)cc21 (racemic)
QUALIFIER_SIGN: >
CC50, µM: 30

MOLECULE: CCNC1CCCc2c1[nH]c1ccc(C)cc21 (racemic)
QUALIFIER_SIGN: >
CC50, µM: 20
